Target: HPD
Assay: pooled miR-30 sensor sort-seq; sequence = guide strand; note: reference of the scale not given here
Details: shRNA
recorded_metric: sensor-assay potency score (higher = more potent)
// no unit string in output, number only

Query: Record lookup: for HPD, what sensor-assay potency score (higher = more potent) belongs to `TGCTGCAGTAGAATGACGCGGC` ?
Response: -0.159

Query: Now the same for `AAACTTGTCTTGCTCTACCCAG`
Response: -0.591

Query: Now the same for `TACATGGCTGACCACCTCCCGG`
Response: -1.66

Query: Now the same for `TGTGATGATGTCTTCGGTCTTG`
Response: 0.215

Query: Now the same for `TTGAACAGTGAGTTGAAGTTGC`
Response: 0.599

Query: Now the same for `TTTGATTACATGGCTGACCACC`
Response: -0.613

Query: Now the same for `TTTCTCGTCGTAGTCCACCAGG`
Response: -0.901

Query: Now the same for `AACTTGTCTTGCTCTACCCAGG`
Response: -0.858

Query: Now the same for `TTATAGTCCACATATTCCTGGA`
Response: 0.144

====

Exercise: for every item that follows, state its recorded sensor-assay potency score (higher = more potent).
Target: RHBDL3
Test: pooled miR-30 sensor sort-seq; sequence = guide strand
Details: shRNA
// no unit string in output, number only

Query: Reported sensor-assay potency score (higher = more potent) for `TGATCAAACAGGACTTTCCAGT` : what is it?
Response: -0.423

Query: Now the same for `TAGCTGTCATAGTACCACTTGC`
Response: -0.706

Query: Now the same for `TAGGCTGACAAAATCCTGGTAG`
Response: 0.858

Query: Now the same for `TGTCATAGTACCACTTGCGGTC`
Response: -0.531

Query: Now the same for `TAATGTAGCCTGTGTTCCCAGG`
Response: -0.768

Query: Now the same for `TTAGGCTGACAAAATCCTGGTA`
Response: 0.00913

====

Target: CASP8
Assay: pooled miR-30 sensor sort-seq; sequence = guide strand
Settings: shRNA
Exercise: for every item that follows, state its recorded sensor-assay potency score (higher = more potent).
// no unit string in output, number only

Query: Record lookup: for CASP8, what sensor-assay potency score (higher = more potent) belongs to `ATCTGATAGAGCATGACCCTGT` ?
Response: -0.509

Query: Now the same for `TTGATTTGGGCACAGACTCTTT`
Response: -0.862

Query: Now the same for `TTTCTTGTCATCCTTGTTGCTT`
Response: -0.189

Query: Now the same for `TAGTTGATAGATAACAATCTGA`
Response: -0.246

Query: Now the same for `TTCTTCTGAAATCTGATAGAGC`
Response: -0.601

Query: Now the same for `TAATAGATGATCGACCCTCCGC`
Response: -0.463

Query: Now the same for `TTTACTTTCAATAACCACCCTG`
Response: 0.433

Query: Now the same for `TAAACTTTGTCCAAAGTCTGTG`
Response: -0.0888

Query: Now the same for `TTACTTTCAATAACCACCCTGG`
Response: 0.486

Query: Now the same for `TTAGTGTGAAAGTAGGCTGAGG`
Response: -0.589

Query: Now the same for `TTCTTGTCATCCTTGTTGCTTA`
Response: -0.496

Query: Now the same for `TATTAATAGATGATCGACCCTC`
Response: -0.244

====

Biological target: NUDT12
Test: pooled miR-30 sensor sort-seq; sequence = guide strand
Details: shRNA
Exercise: for every item that follows, state its recorded sensor-assay potency score (higher = more potent).

Query: Reported sensor-assay potency score (higher = more potent) for `TTTAACATTATGAAAACCTGGA` : what is it?
Response: 0.224

Query: Now the same for `TTTCTCTAGAATCTTACTGATT`
Response: -0.991

Query: Now the same for `TTTTGCTTTCTCTAGAATCTTA`
Response: 0.0347

Query: Now the same for `TATATCTGTGTAGTTCAGCTGA`
Response: 0.275

Query: Now the same for `TATTATTACATTCATTTCCAGT`
Response: -0.883

Query: Now the same for `TATATTGACAACTTAAAGGTAA`
Response: -0.0673

Query: Now the same for `TTAATTTCTGTAGACACTGCTA`
Response: 0.0613

====

Target: CDH20
Experiment: pooled miR-30 sensor sort-seq; sequence = guide strand
Conditions: shRNA
Exercise: for every item that follows, state its recorded sensor-assay potency score (higher = more potent).
// no unit string in output, number only

Query: Reported sensor-assay potency score (higher = more potent) for `TGATGATGAACTCTGACTCGGG` : what is it?
Response: -0.216

Query: Now the same for `TATCTGAATGAAGCTTGCCGAC`
Response: -1.28

Query: Now the same for `TTGGATAATCACTTCGTAGTAT`
Response: 0.305

Query: Now the same for `TTCATCTCTGCATTGATGCCTT`
Response: -0.00989

Query: Now the same for `TAGTATATTTCATCTCTGCATT`
Response: -0.967

Query: Now the same for `TTGATTGTGACAGGAACACTTC`
Response: -0.452

Query: Now the same for `TTGAGTTGTTGGTCACATCTGG`
Response: 0.759

====

Molecular target: PXN
Assay: pooled miR-30 sensor sort-seq; sequence = guide strand
Conditions: shRNA
Exercise: for every item that follows, state its recorded sensor-assay potency score (higher = more potent).
// no unit string in output, number only

Query: Record lookup: for PXN, what sensor-assay potency score (higher = more potent) belongs to `TTGAGTTGGCCTCATCTGCAGG` ?
Response: -0.889

Query: Now the same for `TCGTGCTCGAAGAAGCTGCCGT`
Response: -0.594

Query: Now the same for `TAGGCTTCTCTTTCGTCAGGGG`
Response: 0.384

Query: Now the same for `TAGTTCTCCAGGATGGCCCGGG`
Response: -0.505

Query: Now the same for `TTCTCGTGGAACCCTTCGGGAC`
Response: -1.59

Query: Now the same for `TTGCAGTAGTAGCAGCGCGGGG`
Response: -1.51

Query: Now the same for `AACATGTCGAAGTAGTCCTTGC`
Response: -0.89

Query: Now the same for `TAGAAATCTATCAAAGTCGGTA`
Response: 0.0963

====

Target: ABHD14A
Test: pooled miR-30 sensor sort-seq; sequence = guide strand
Details: shRNA
recorded_metric: sensor-assay potency score (higher = more potent)
// no unit string in output, number only

Query: Reported sensor-assay potency score (higher = more potent) for `TCCATGAAGCAGCACCACCTCC` : what is it?
Response: -1.75

Query: Now the same for `ATGGCCTGCATTGCGTAGCTTC`
Response: -1.76

Query: Now the same for `TGCATTGCGTAGCTTCACCACA`
Response: -1.6

Query: Now the same for `TAAGGGTTGGAGTCTTCACAGC`
Response: -1.08

Query: Now the same for `TTGAGTGGGAGCACCTCGCGGT`
Response: 0.0609

Query: Now the same for `GAGGTCTGTACCACAGTCGGGC`
Response: -1.45

Query: Now the same for `TGAGTGGGAGCACCTCGCGGTA`
Response: -1.68

====

Target: BTAF1
Assay: pooled miR-30 sensor sort-seq; sequence = guide strand
Conditions: shRNA
Criterion: sensor-assay potency score (higher = more potent) meeting or surpassing -0.2. Met: true. Not met: false.

Query: Does the sequence `TTGATCTTGCATATTCCTGGGC` have recorded sensor-assay potency score (higher = more potent) that is -0.2 or more?
Response: true

Query: Now the same for `TAGCTTCAACAGCTTGTCCTGC`
Response: false

Query: Now the same for `TAAAGTATTAATTACATCCTGA`
Response: true

Query: Now the same for `TTTACTGCTTTTGACAACTTTG`
Response: false

Query: Now the same for `TAGAGTGTAATTATACCTCTGT`
Response: true

Query: Now the same for `TAAGAGTACAATAATAGTCTTG`
Response: true

====

Molecular target: FLG
Experiment: pooled miR-30 sensor sort-seq; sequence = guide strand
Settings: shRNA
recorded_metric: sensor-assay potency score (higher = more potent)
// no unit string in output, number only

Query: Record lookup: for FLG, what sensor-assay potency score (higher = more potent) belongs to `TAGACTCATAATATGCTTGAGC` ?
Response: -0.577

Query: Now the same for `TAGAATGGCCACATAAACCTGG`
Response: 0.301

Query: Now the same for `TATGAGTAGGTGAATATCCTTT`
Response: -0.066

Query: Now the same for `TTGTTCTGCTTGCACTTCTGGA`
Response: -0.702

Query: Now the same for `AATTGTAACTAACACTTCCGTG`
Response: -0.414
